Provide the recorded pEC50 for the entries that follow.
- Tested on: HCV 1b genotype
- experimentSummary: HCV replicon assay, 1b genotype
- Type: cell-based
- testParameters: Hepatitis C virus; HCV 1b genotype replicon; read-out: 1b EC50
Answers are plain numbers, as −log10 of the molar value.

Use these answered entries as a reference point.
COC(=O)N[C@H](C(=O)N1CCC[C@H]1C(=O)Nc1n[nH]c2ccc(-c3ccc(-c4cnc([C@@H]5CCCN5C(=O)[C@@H](NC(=O)OC)[C@@H](C)OC)[nH]4)cc3)cc12)[C@@H](C)OC    5.92
CCN(CC)[C@@H](C(=O)N1CCC[C@H]1C(=O)Nc1n[nH]c2cc(-c3ccc(-c4cnc([C@@H]5CCCN5C(=O)[C@@H](c5ccccc5)N(CC)CC)[nH]4)cc3)ccc12)c1ccccc1    10.37

Query for HCV 1b genotype: what pEC50 does the record show for COC(=O)N[C@H](C(=O)N1CCC[C@H]1C(=O)Nc1noc2ccc(-c3ccc(-c4cnc([C@@H]5CCCN5C(=O)[C@@H](NC(=O)OC)C(C)C)[nH]4)cc3)cc12)C(C)C ?
7.52
